- assayed_system: human GLP-1 receptor (human, UniProt P43220 24-463)
- Sequence (P43220 24-463): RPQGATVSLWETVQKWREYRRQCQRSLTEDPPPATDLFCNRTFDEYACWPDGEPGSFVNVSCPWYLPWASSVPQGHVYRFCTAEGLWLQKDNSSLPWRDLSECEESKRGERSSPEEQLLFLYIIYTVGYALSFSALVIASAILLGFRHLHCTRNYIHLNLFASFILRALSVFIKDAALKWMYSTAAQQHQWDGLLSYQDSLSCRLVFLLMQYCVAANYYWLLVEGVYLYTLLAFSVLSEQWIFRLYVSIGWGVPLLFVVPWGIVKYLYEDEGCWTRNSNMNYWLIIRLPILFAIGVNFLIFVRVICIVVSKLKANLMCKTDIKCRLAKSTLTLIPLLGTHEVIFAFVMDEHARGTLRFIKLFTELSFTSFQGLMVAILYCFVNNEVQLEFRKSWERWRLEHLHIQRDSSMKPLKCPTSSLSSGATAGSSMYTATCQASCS
- assay_notes: cell-based or functional assay
Starred links: 1 amine or outer side, 2 acyl side, 3 side chain; linkers in the order of their positions; H or OH if unused. Non-standard residues stand in square brackets, D forms with d. No end group written: not given here. ACPP = 2-amino-5-(3-chlorophenyl)pentanoic acid, O=C([C@H](CCCc1cccc(Cl)c1)N[*:1])[*:2]; Bip(2'-Et-4'-OMe) = CCc1cc(OC)ccc1-c1ccc(C[C@H](N)C(=O)O)cc1; Nva(5-(3,5-Me2Ph)) = Cc1cc(C)cc(CCC[C@H](N)C(=O)O)c1; 2F‑APPA = 2-amino-5-(2-fluorophenyl)pentanoic acid; αMePhe(2-F) = C[C@](N)(Cc1ccccc1F)C(=O)O; Phe(2-F) = N[C@@H](Cc1ccccc1F)C(=O)O; aThr = C[C@H](O)[C@H](N)C(=O)O; CNB = not defined here; Aib = CC(C)(N)C(=O)O
reported_property: cAMP release, % activity, 1 nM (%)
Answer format: numeric, % implied, no suffix.

[ask] Which cAMP release, % activity, 1 nM value belongs to H[Aib]QGT[Phe(2-F)]TSD[Bip(2'-Et-4'-OMe)][Nva(5-(3,5-Me2Ph))] [Seq. ID. No. 42: H-Aib-QGT-(2F-Phe)-TSD-Bip(OMe)-(ADMP)] ?
[reply] 39

[ask] One more binder: H[Aib][CNB]GT[αMePhe(2-F)][aThr]SD[Bip(2'-Et-4'-OMe)][2F‑APPA] (reading uncertain) [Seq. ID. No. 120: H-Aib-(CNB)-GT-(α-Me-2F-Phe)-T(allo)-SD-Bip(OMe)-(2F-APPA)]
[reply] 99

[ask] One more binder: H[Aib]QGTFTSD[Bip(2'-Et-4'-OMe)][ACPP] [Seq. ID. No. 19: H-Aib-QGTFTSD-Bip(OMe)-(ACPP)]
[reply] 99
